- assay.details: RAD001 pharmacokinetic analysis in blood of tumor bearing mice
- Format: in vivo, NSG mice
- condition.set: NSG, mouse, whole blood, oral, 0.3 mg/kg; 24 hours after the final dose; read-out: concentration of RAD001
assay.endpoint: concentration at 24 h

Consider the compound shown here: CO[C@H]1C[C@@H]2CC[C@@H](C)[C@@](O)(O2)C(=O)C(=O)N2CCCC[C@H]2C(=O)O[C@H]([C@H](C)C[C@@H]2CC[C@@H](OCCO)[C@H](OC)C2)CC(=O)[C@H](C)/C=C(\C)[C@@H](O)[C@@H](OC)C(=O)[C@H](C)C[C@H](C)/C=C/C=C/C=C/1C [RAD001] What is its recorded concentration at 24 h?
> 10 nM

All values here come from patent US11161907B2.
